B1: Far upstream element-binding protein 1, residues 184 to 257; numbered along this chain, Q96AE4 (parent)
chain: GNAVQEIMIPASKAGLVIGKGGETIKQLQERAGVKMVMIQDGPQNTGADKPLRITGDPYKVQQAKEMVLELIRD

Variants of: B1
protocol-summary: abundance fitness (aPCA) (normalised: wild type 0, dead -1); higher = more abundant; growth selection in yeast, the domain comes from the species named
condition-description: Homo sapiens
Catalogue of variants with associated abundance fitness

Use these answered entries as a reference point.
Q: # get_value(readout='abundance fitness', item= P43G )
Ans: 0.05

Q: # get_value(readout='abundance fitness', item= T55V )
Ans: -0.047

Q: # get_value(readout='abundance fitness', item= K20V )
Ans: -0.031

Now for the variant whose abundance fitness we want.
Q: # get_value(readout='abundance fitness', item= P58H )
Ans: -0.003

This collection of values is drawn from the Human Domainome abundance scans (Beltran et al. 2025).
